biological target: Mitogen-activated protein kinase kinase kinase 7 (TAK1 kinase) (Homo sapiens) (UniProt O43318); test: Inhibition of N-terminus FLAG-tagged TAK1 expressed in baculovirus expression system using [gamma-33P]-ATP measured after 60 mins by scintillation counting
Sequence (O43318 whole entry, looked up): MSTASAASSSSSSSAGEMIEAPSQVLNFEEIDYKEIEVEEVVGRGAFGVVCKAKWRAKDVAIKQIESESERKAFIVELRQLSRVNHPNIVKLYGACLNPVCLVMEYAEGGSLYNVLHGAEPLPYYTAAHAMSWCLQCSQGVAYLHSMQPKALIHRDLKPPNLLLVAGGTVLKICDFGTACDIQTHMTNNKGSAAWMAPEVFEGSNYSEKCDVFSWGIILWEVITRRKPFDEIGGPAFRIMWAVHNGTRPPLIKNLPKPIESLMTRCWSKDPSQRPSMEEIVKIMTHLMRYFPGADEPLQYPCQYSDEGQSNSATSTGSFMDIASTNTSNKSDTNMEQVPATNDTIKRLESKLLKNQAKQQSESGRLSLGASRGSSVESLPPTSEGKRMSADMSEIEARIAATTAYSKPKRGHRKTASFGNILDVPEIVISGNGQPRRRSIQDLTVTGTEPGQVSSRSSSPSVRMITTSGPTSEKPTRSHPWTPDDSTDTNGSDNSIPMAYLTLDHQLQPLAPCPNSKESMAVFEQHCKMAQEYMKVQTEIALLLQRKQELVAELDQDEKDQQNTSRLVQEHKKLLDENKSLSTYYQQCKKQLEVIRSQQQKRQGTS
Experimental Readout: IC50

Compound String: CC(C)(N)C(=O)NCCn1ccc2ncnc(Nc3ccc(Oc4cccc5sncc45)c(Cl)c3)c21
Experimental Readout: IC50
Reported Measurement: > 10 µM
